Attribution: the supplement of paper PMC10883282

- Tested on: SW684
- ASSAY DETAILS: relative viability vs DMSO control (72 h) (fraction); higher = more viable cells
- EXPERIMENTAL SETUP: 0.00457 µM

| COMPOUND | relative viability |
| --- | --- |
| O=S(=O)(c1cccc2c(O)nccc12)N1CCCNCC1 [Hydroxyfasudil] | 1.16 |
| Cn1cnc2c(F)c(Nc3ccc(Br)cc3Cl)c(C(=O)NOCCO)cc21 [Selumetinib] | 1.03 |
| COC(=O)c1ccc2c(c1)NC(=O)/C2=C(\Nc1ccc(N(C)C(=O)CN2CCN(C)CC2)cc1)c1ccccc1 [Nintedanib] | 1.12 |
